- assayed_target: LASV 237 (lineage III) glycoprotein (Lassa virus, strain 237)
- experimental_protocol: cell-based or functional assay
IC80 (neutralization) of 4 µg/mL or higher: true. Under 4 µg/mL: false.

Could you tell me if the measured IC80 (neutralization) of 9.8A (antibody, V domains shown) VH: EVQLVQSGGRLVQPGGSLRLSCVASGFTFSSHAMSWVRQAPGKGLEWVSGFSGSSGTTKYADSVKGRFTISRDNSKKTLYLQMNSLRAEDTAVYYCAKGFSPFRGVQFPYFDYWGQGTLVTVSS VL: DIVMTQSPSTLSASVGDRVTITCRASQSIDRWLAWYQQKPGKAPKLLIYQASSLERGVPSRFSGSGSGTEFTLTISSLQPDDFATYYCQQYNGYPLTFGGGTKVEIKR reaches 4 µg/mL or more?
false

Kindly determine if IC80 (neutralization) recorded for 37.2G (antibody, V domains shown) VH: EVQLVESGGGLVKPGGSRRLSCAASGFTFSRDTMTWVRQAPGKGLEWVASISSGSSDINYADSVKGRFTISRDNGKNSLYLHMNSLRADDTAIYYCARDPRSGISGRYGMDVWGQGTTVTVSS VL: DIVLTQSPGTLSLSPGERATLSCRASQSVNSIFLAWYQQKPGQAPRLLIYGASSRATGIPDRFSGSGSGTDFTLTISRLEPEDFAVYYCQQYHSSPKLTFGGGTKVEIKR is above or exactly 4 µg/mL.
true

Is IC80 (neutralization) for 37.7H (antibody, V domains shown) VH: EVQLVQSGGGLVKAGGSLRLSCAASGFTFSTYSMNWIRQAPGKGLEWVASISSRSGSHINYVDSVKGRFTISRDNARDLLYLQMNSLRVDDSALYYCARDRRSGTSPLPLDVWGQGTTVTVFS VL: DQSALTQPASVSGSPGQSITISCTGTGSDIGGYNFVSWYQQYPGKAPKLIIYEVRIRASGVSNRFSGSKSGNTASLTISGLQAEDEADYYCNSYSIHSPWVFGGGTKLTVLR at or above 4 µg/mL?
false

Is reported IC80 (neutralization) greater than or equal to 4 µg/mL here: 37.2D (antibody, V domains shown) VH: EVQLVQSGAEVKKPGASVKVSCKASGYTFTKYGISWVRQAPGQGLEWMGWISAFNGYTRYGQRFQGKVTMTTDTSTNTASLEVRTLTSNDTAVYYCARQYPDQYSSSGWPRLFAMDVWGQGTTVIVSP VL: ETTLTQSPATLSVSPGETATLSCRASQNVINNLAWYQQKPGQAPRLLIYGASTRATGIPARFSGSGSGTEFTLTISSMQSEDFAVYYCQQYNDWPRSFGQGTRLDIRR
false

I'd appreciate it if you could say whether 25.6A (antibody, V domains shown) VH: QVQLQESGGGLVKAGGSLRLSCAASGFMFERYSLHWVRQTPGKGLEWVSSISSLSGSHINYADSVKGRFTISRDNAKNSLSLQMNSLRVEDTAIYYCARDRRSGSSPVPLDVWGQGTTVTVSS VL: DLPVLTQPASVSGSPGQSITISCTGTSSDVGAYNYVSWYQQHPGKAPKLIIYEVKIRPSGVSNRFSGSKSGNTASLTISGLQAEDEADYFCSSYSTNSPWVFGGGTKVTVLR has IC80 (neutralization) at least equal to 4 µg/mL.
false

Is IC80 (neutralization) for 36.9F (antibody, V domains shown) VH: EVQLVQSGGGLVKAGGSLKLSCGASGFTFSSYSMSWVRQAPGKGLEWVSYISSGGSSIHYADSVKGRFTISRDNAKNSLYLQMKNLRVDDTGRYYCVRDPRSGISGRYGMDVWGQGTTVTVSS VL: DIVMTQSPDSLAVSLGERATINCKSSQTVLFTSYYVAWYQQKPGQPPKLLFSGASSRESGVPDRFSAGGSGTDFYLTINSLQAEDVADYYCQQYHTPPFTFGGGTKLEIRR at or above 4 µg/mL?
true

Reported IC80 (neutralization) reaches at least 4 µg/mL for 8.11G (antibody, V domains shown) VH: QVQLQESGPGLVKPSETLSLTCSISGVSTRNYYWSWIRQSPGKGLEWIGYIFNIGTTNYNPSLKSRLTISVDTSKNQFSLKITSVTAADTAVYYCASGFEYGDYTFDYWGQGTPVTVSS VL: EIVLTQSPATLSVSPGGRASLSCRASQSIGDKLSWYQQKPGQAPRLVIYGAYTRATDISPRFSGSRSGTDFNLTISRMQSGDFAVYFCQQYENWPRTFGQGTKLEIKR ?
false

Turning now to a further record.
Assess whether reported IC80 (neutralization) for 10.4B (antibody) VH: DQVQLVQSGGGVVQPGRSLRVSCVTSGFNFRAYGMHWVRQIPGKGLEWVADIWSAETNRHYADSVKGRFTISRDNSKSTLYLQMNSLRAEDTGVYFCAKARPGYDYVVDLWGQGTLVIVSSASTKGPSVFPLAPCSRSTSGGTAALGCLVKDYFPEPVTVSWNSGALTSGVHTFPAVLQSSGL VL: DEIVLTQSPSSLSASVGDRVTITCRASRDINTYLGWFQQRPGKAPKSLIYGASNLQNGVPSRFSGSGSGTYFTLTINGLQTEDFATYYCQQYSIYPLSLGGGTKADMKRTVAAPSVFIFPPSDEQLKSGTASVVCLLNNFYPREAKVQWKVDNALQSGNSQESVTEQDSKDSTYSLSSTLTLSKADYEKHKVYACEVTHQGLSSP sits at 4 µg/mL or higher.
true

Cited source for all entries: patent US20200002405A1
